Assay: A qHTS for Small Molecule Inhibitors of Shiga Toxin; also: 0% is about no effect
Settings: Vero cells, Shiga toxin protein synthesis inhibition reporter; at 38.7 µM, hits give high values
The campaign covered roughly 290,000 compounds. About 27,000 (9.3%) were called active. The sample as a whole holds a higher share of actives than the screen did.
test readout: inhibition

Consider the following illustrative entries.
{"molecule smiles": "COC(=O)c1sccc1NC(=O)c1cc(OC)c(OC)c(OC)c1", "inhibition": "14.1% (inactive)"}
{"molecule smiles": "COc1cc(NC(=O)c2ccc3c(c2)OCO3)ccc1NC(=O)c1cccs1", "inhibition": "55.9% (active)"}
{"molecule smiles": "Cc1ccc(NC(=O)CC(=O)Nc2ccc(C)cc2)cc1", "inhibition": "-2.71% (inactive)"}
{"molecule smiles": "COC(=O)c1ccc(NCC(=O)c2ccccc2)cc1", "inhibition": "85.2% (active)"}
{"molecule smiles": "O=C(N/N=C/c1c(O)n(C2CC2)c(=S)[nH]c1=O)c1ccccc1", "inhibition": "84.6% (active)"}

Query block: Recall and state the measured inhibition for `CCOc1ccc2nc(N(CCCN(C)C)C(=O)c3ccc(C(=O)c4ccccc4)cc3)sc2c1` .
Result block: -6% (inactive)

Query block: Recall and state the measured inhibition for `COc1cc(NC(=O)c2ccccc2)c(OC)cc1NC(=O)Cc1ccccc1` .
Result block: -6.61% (inactive)

Query block: Recall and state the measured inhibition for `COc1ccc(-c2nc3n(c(=O)c2C#N)CCS3)c(OC)c1` .
Result block: -7.88% (inactive)

Query block: Recall and state the measured inhibition for `COc1ccc(F)cc1S(=O)(=O)Nc1ccc2c(c1)OCO2` .
Result block: -6.49% (inactive)

Query block: Recall and state the measured inhibition for `Cc1ccc(Oc2cc(NC(=O)CCCn3nc(C)c([N+](=O)[O-])c3C)cc([N+](=O)[O-])c2)cc1` .
Result block: 9.13% (inactive)

Query block: Recall and state the measured inhibition for `COc1ccc(Cn2c(=S)[nH]c3cc(C(=O)NCCCN4CCOCC4)ccc3c2=O)cc1` .
Result block: 18.7% (inactive)

Query block: Recall and state the measured inhibition for `COC(=O)c1ccc(NC(=O)c2ccccc2NS(=O)(=O)c2ccccc2)cc1` .
Result block: 5.81% (inactive)

* * *

Assay: A qHTS for Small Molecule Inhibitors of Shiga Toxin; also: 0% is about no effect
Conditions: Vero cells, Shiga toxin protein synthesis inhibition reporter; at 38.7 µM, hits give high values
The whole screen tested about 290,000 compounds, of which about 27,000 (9.3%) were called active. This excerpt belongs to a sample that is enriched for actives.
Label MET when inhibition >= 60%; otherwise NOT MET.

Some entries whose results are on file:
{"molecule": "O=C(Nc1cccc(NC(=O)c2ccc(Br)cc2)c1)c1ccccc1", "answer label": "NOT MET"}
{"molecule": "Cc1nc(C)c(C(=O)Nc2cccc(C)c2C)o1", "answer label": "NOT MET"}
{"molecule": "O=C(Nc1ccccc1)c1ccc2nsnc2c1", "answer label": "MET"}
{"molecule": "Cc1cccc(NC(=O)c2ccc(OCC(=O)NCc3ccccc3)cc2)c1C", "answer label": "NOT MET"}
{"molecule": "O=C(Nc1ccccc1Cl)c1ccc2nsnc2c1", "answer label": "MET"}

Query block: Check if inhibition >= 60% (inclusive). Item: CCCCSCCCNC(=O)C1CCC(CNS(=O)(=O)c2ccc(NC(C)=O)cc2)CC1 (stereo unspecified)
Result block: NOT MET

Where do these numbers come from? They come from PubChem BioAssay AID2315.
